Measured values drawn from patent US20200247894A1 for this set.

Hi there, I'd appreciate the recorded kon for every entry that follows.
Molecular target: T1, Macaca fascicularis IL2Rγ extracellular domain expressed with a C-terminal myc-myc-hexahistidine tag (Macaca fascicularis)
T1 construct: also called mfIL-2Rg-MMH; mfIL-2RG-MMH
T1 chain: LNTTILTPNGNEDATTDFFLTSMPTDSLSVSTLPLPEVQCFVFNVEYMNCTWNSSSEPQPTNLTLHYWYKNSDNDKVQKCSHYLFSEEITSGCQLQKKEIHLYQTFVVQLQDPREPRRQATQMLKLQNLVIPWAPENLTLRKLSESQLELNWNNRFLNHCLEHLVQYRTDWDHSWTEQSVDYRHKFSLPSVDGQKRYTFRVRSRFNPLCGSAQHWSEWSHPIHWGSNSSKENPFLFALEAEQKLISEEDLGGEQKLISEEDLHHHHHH
Assay: SPR Biacore 4000, mAb captured by anti-hFc, HBS-ET, 25C
Protocol: Equilibrium dissociation constants (KD values) for IL-2Rγ binding to purified anti-IL2Rγ monoclonal antibodies were determined using a Biacore 4000 instrument equipped with a real-time surface plasmon resonance biosensor. […] The dissociation of monoclonal antibody bound IL2Rγ reagents were monitored for 8-10 minutes in HBS-ET running buffer. […] Binding dissociation equilibrium constants (KD) and dissociative half-lives (t_{1/2}) were calculated from the kinetic rate constants as: […]
Give bare numbers, in M⁻¹ s⁻¹.

H4H12890P (antibody, human IgG4 S228P, kappa, V domains shown, anti-IL2Rγ monoclonal antibody expressed with human IgG4 Fc) VH: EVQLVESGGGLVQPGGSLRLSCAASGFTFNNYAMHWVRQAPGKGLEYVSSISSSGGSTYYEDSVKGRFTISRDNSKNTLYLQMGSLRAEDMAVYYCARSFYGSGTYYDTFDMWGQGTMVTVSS VL: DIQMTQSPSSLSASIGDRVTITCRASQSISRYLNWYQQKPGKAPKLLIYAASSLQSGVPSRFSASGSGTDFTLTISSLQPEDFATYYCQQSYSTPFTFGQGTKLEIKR :: 60600

Batch of 2 binders: report kon for each.
1. H4H12884P (antibody, human IgG4 S228P, kappa, V domains shown, anti-IL2Rγ monoclonal antibody expressed with human IgG4 Fc) VH: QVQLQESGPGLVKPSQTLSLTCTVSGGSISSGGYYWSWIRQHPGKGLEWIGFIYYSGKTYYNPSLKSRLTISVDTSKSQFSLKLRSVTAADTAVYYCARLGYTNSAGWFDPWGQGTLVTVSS VL: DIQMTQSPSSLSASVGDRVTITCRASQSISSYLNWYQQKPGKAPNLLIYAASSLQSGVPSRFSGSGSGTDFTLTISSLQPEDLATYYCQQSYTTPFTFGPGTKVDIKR
2. H4H12886P (antibody, human IgG4 S228P, kappa, V domains shown, anti-IL2Rγ monoclonal antibody expressed with human IgG4 Fc) VH: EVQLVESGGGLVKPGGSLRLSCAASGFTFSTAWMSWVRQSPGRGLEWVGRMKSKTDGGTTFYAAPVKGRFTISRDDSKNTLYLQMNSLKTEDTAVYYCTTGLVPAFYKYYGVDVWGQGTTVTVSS VL: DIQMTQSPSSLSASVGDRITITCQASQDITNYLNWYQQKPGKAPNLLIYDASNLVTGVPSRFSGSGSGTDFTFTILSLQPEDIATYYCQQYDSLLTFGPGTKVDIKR

*A*
1: 174000; 2: 109000
